Origin of values: patent US12162820B2

For each record, write down the corresponding inhibition at 2 µM.
Experimental system: HDAC3 (Homo sapiens, UniProt O15379)
Construct: purchased Enzo Life Sciences
Sequence (O15379 whole entry): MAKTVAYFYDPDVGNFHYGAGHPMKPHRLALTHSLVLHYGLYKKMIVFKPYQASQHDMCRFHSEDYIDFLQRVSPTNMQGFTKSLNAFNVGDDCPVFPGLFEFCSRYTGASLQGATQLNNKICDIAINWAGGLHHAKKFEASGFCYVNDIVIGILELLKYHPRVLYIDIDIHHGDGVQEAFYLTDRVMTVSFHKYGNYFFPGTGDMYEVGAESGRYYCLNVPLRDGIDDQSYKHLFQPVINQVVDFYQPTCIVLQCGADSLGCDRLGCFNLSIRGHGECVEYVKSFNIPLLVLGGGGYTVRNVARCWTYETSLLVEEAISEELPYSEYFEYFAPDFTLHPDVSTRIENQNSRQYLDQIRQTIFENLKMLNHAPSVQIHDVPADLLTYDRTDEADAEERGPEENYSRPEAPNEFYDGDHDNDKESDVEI
Sequence (O75376 395-489 partner limits assumed): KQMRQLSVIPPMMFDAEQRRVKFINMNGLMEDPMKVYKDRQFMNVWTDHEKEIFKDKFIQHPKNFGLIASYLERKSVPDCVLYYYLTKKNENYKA
Assay text: HDAC Inhibition Screening Assay (FLUOR DE LYS Fluorimetric Drug Discovery Kit), HDAC3
Type: biochemical
Applied conditions: 2 μM compound
Experimental: The HDAC1/HDAC2/HDAC3 in vitro activities are detected by Enzo Life Sciences' HDAC1/HDAC2/HDAC3 Fluorimetric Drug Discovery Kit. The assay is based on the FLUOR DE LYS® Substrate and FLUOR DE LYS® Developer combination. The assay procedure has two steps. […] The signals of the test compounds (Compounds 1˜83; at concentrations of 2 μM, 10 μM and 50 μM) in 96-well plates are detected at 360 nm or 485 nm excitation and 460 nm or 530 nm emission with a Molecular Devices SpectraMax i3 Imaging Cytometer. […]

[in] Entry Nc1cc(F)ccc1NC(=O)CCCCCC(=O)Nc1ccc2c(c1)CC/C(=C\c1cc(C(F)(F)F)cc(C(F)(F)F)c1)C2=O needs its inhibition at 2 µM filled in; supply it.
[out] < 50%

[in] Hello, please tell me recorded inhibition at 2 µM for this one: Nc1cc(F)ccc1NC(=O)CCCCCNC(=O)/C=C/c1ccc2c(c1)CCC2NC(=O)c1ccc(F)cc1 (stereo not shown)
[out] 50 to 80%

[in] Input O=C(/C=C/c1ccc2c(c1)CCCC2OCc1cc(C(F)(F)F)cc(C(F)(F)F)c1)NO (stereo not shown) , output reported inhibition at 2 µM.
[out] < 50%

[in] Let me know recorded inhibition at 2 µM for O=C(CCCCCN(CC(=O)NC1CCc2ccccc21)CC(=O)NC1CCc2ccccc21)NO (stereo not shown) , thanks.
[out] > 80%

[in] In one line, give reported inhibition at 2 µM of the entry Nc1cc(F)ccc1NC(=O)/C=C/c1ccc2c(c1)CCC2NS(=O)(=O)c1cc(C(F)(F)F)cc(C(F)(F)F)c1 (stereo not shown) .
[out] < 50%

[in] Provide only the value of recorded inhibition at 2 µM for Nc1cc(F)ccc1NC(=O)/C=C/c1ccc(COc2ccc3c(c2)CC/C(=C\c2cc(C(F)(F)F)cc(C(F)(F)F)c2)C3=O)cc1
[out] < 50%

[in] Return inhibition at 2 µM for the following compound: O=C(/C=C/c1ccc2c(c1)CCC2NCCc1cc(C(F)(F)F)cc(C(F)(F)F)c1)NO (stereo not shown)
[out] > 80%

----------
Experimental system: HDAC1 (Homo sapiens)
Construct: purchased Enzo Life Sciences
Assay text: HDAC Inhibition Screening Assay (FLUOR DE LYS Fluorimetric Drug Discovery Kit), HDAC1
Format: biochemical
Applied conditions: 2 μM compound
Measured property: inhibition at 2 µM

[in] Name the recorded inhibition at 2 µM of the item O=C(/C=C/c1ccc2c(c1)CC/C(=C\c1cc(C(F)(F)F)cc(C(F)(F)F)c1)C2=O)NO in your answer.
[out] < 50%

[in] Indicate the recorded inhibition at 2 µM value for this compound: Nc1cc(F)ccc1NC(=O)CCCCCCC(=O)Nc1ccc2c(c1)CCC(Cc1cc(C(F)(F)F)cc(C(F)(F)F)c1)C2=O (stereo not shown)
[out] < 50%

[in] Dear colleague, please send me the reported inhibition at 2 µM for CN(C(=O)OCc1cc(C(F)(F)F)cc(C(F)(F)F)c1)C1CCc2cc(/C=C/C(=O)NO)ccc21 (stereo not shown) when you can.
[out] 50 to 80%

[in] Give reported inhibition at 2 µM value for CN(C)c1ccc(CCNC2CCc3cc(/C=C/C(=O)NO)ccc32)cc1 (stereo not shown)
[out] > 80%

[in] Fill in reported inhibition at 2 µM for this entry: O=C(/C=C/c1ccc(CNC(=O)COc2ccc3c(c2)CC/C(=C\c2cc(C(F)(F)F)cc(C(F)(F)F)c2)C3=O)cc1)NO
[out] < 50%

[in] Please report the measured inhibition at 2 µM for Cc1[nH]c2ccccc2c1CCNC1CCCc2cc(/C=C/C(=O)NO)ccc21 (stereo not shown)
[out] > 80%

[in] Please give the documented inhibition at 2 µM of O=C(CCCCC(=O)Nc1ccc2c(c1)CC/C(=C\c1cc(C(F)(F)F)cc(C(F)(F)F)c1)C2=O)NO
[out] < 50%

----------
Experimental system: HDAC3 (Homo sapiens)
Construct: purchased Enzo Life Sciences
Assay text: HDAC Inhibition Screening Assay (FLUOR DE LYS Fluorimetric Drug Discovery Kit), HDAC3
Assay type: biochemical
Applied conditions: 50 μM compound
Experimental: The HDAC1/HDAC2/HDAC3 in vitro activities are detected by Enzo Life Sciences' HDAC1/HDAC2/HDAC3 Fluorimetric Drug Discovery Kit. The assay is based on the FLUOR DE LYS® Substrate and FLUOR DE LYS® Developer combination. The assay procedure has two steps. […] The signals of the test compounds (Compounds 1˜83; at concentrations of 2 μM, 10 μM and 50 μM) in 96-well plates are detected at 360 nm or 485 nm excitation and 460 nm or 530 nm emission with a Molecular Devices SpectraMax i3 Imaging Cytometer. […]
Measured property: inhibition at 50 µM

[in] Enter inhibition at 50 µM (test system HDAC3 (Homo sapiens)) for O=C(/C=C/c1ccc2c(c1)CCC2NCCC(=O)Nc1cc(C(F)(F)F)cc(C(F)(F)F)c1)NO (stereo not shown)
[out] > 80%

[in] Give inhibition at 50 µM for COc1ccc(N2C(=O)CN(C3CCc4cc(/C=C/C(=O)NO)ccc43)C2=O)cc1 (stereo not shown) tested on HDAC3 (Homo sapiens).
[out] > 80%

[in] Please report the measured inhibition at 50 µM for Nc1cc(F)ccc1NC(=O)/C=C/c1ccc2c(c1)CC/C(=C\c1cc(C(F)(F)F)cc(C(F)(F)F)c1)C2=O tested on HDAC3 (Homo sapiens).
[out] < 50%

[in] Please tell me the measured inhibition at 50 µM for O=C(CCCCCCC(=O)Nc1ccc2c(c1)CCCC2O)NO (stereo not shown) ; system: HDAC3 (Homo sapiens).
[out] > 80%

----------
Experimental system: HDAC1 (Homo sapiens, UniProt Q13547)
Construct: purchased Enzo Life Sciences
Sequence (Q13547 whole entry): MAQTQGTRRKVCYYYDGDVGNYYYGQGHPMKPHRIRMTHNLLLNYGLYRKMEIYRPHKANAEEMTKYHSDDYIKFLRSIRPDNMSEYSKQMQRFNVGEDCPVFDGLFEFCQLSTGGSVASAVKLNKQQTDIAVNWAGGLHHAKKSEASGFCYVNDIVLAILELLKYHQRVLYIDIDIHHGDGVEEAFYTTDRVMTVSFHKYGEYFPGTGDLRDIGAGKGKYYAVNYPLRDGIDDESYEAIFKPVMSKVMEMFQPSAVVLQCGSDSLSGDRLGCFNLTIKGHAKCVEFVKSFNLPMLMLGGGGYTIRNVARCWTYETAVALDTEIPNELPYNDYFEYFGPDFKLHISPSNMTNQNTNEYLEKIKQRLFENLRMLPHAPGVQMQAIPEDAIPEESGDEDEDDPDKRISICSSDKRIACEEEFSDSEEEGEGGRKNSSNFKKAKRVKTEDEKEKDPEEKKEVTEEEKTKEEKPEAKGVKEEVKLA
Assay text: HDAC Inhibition Screening Assay (FLUOR DE LYS Fluorimetric Drug Discovery Kit), HDAC1
Format: biochemical
Applied conditions: 10 μM compound
Measured property: inhibition at 10 µM

[in] Give the reported value of inhibition at 10 µM for this record: O=C(/C=C/c1ccc2c(c1)CCC2NC(=O)c1ccc(F)cc1)NCCCCCC(=O)NO (stereo not shown) [Compound 32]
[out] > 80%

[in] Please look at this compound and report its inhibition at 10 µM: Nc1cc(F)ccc1NC(=O)c1ccc(COc2ccc3c(c2)CC(Cc2cc(C(F)(F)F)cc(C(F)(F)F)c2)C3=O)cc1 (stereo not shown) [Compound 76]
[out] < 50%

[in] Quickly give me recorded inhibition at 10 µM for O=C(CCCCCNC(=O)c1ccc2c(c1)CC/C(=C\c1cc(C(F)(F)F)cc(C(F)(F)F)c1)C2=O)NO [Compound 79]
[out] > 80%

[in] Using the record for O=C(/C=C/c1ccc2c(c1)CCC2NC(=O)CCCCCCC(=O)NO)Nc1cc(Cl)cc(Cl)c1 (stereo not shown) [Compound 42] , state its measured inhibition at 10 µM.
[out] 50 to 80%

----------
Would you mind telling me the reported inhibition at 50 µM of each entry?
Experimental system: HDAC1 (Homo sapiens)
Construct: purchased Enzo Life Sciences
Assay text: HDAC Inhibition Screening Assay (FLUOR DE LYS Fluorimetric Drug Discovery Kit), HDAC1
Assay type: biochemical
Applied conditions: 50 μM compound

[in] Check the records and state inhibition at 50 µM for O=C(/C=C/c1ccc2c(c1)CCC2NC(=O)CCCCCCC(=O)NO)Nc1cc(Cl)cc(Cl)c1 (centres unmarked)
[out] > 80%

[in] Respond only with inhibition at 50 µM recorded for Cc1[nH]c2ccccc2c1CCNC1CCc2cc(/C=C/C(=O)Nc3ccc(F)cc3N)ccc21 (centres unmarked)
[out] > 80%

[in] Please list inhibition at 50 µM recorded for the compound COc1ccc(C(=O)NC2CCc3cc(/C=C/C(=O)NO)ccc32)cc1 (centres unmarked)
[out] > 80%

[in] Give me measured inhibition at 50 µM, please, for this compound: Cc1[nH]c2ccccc2c1CCNC1CCCc2cc(/C=C/C(=O)Nc3ccc(F)cc3N)ccc21 (centres unmarked)
[out] > 80%

[in] Output inhibition at 50 µM of O=C(NO)c1ccc(COc2ccc3c(c2)CC(Cc2cc(C(F)(F)F)cc(C(F)(F)F)c2)C3=O)cc1 (centres unmarked)
[out] 50 to 80%

[in] State its inhibition at 50 µM: O=C(CCCCCCC(=O)Nc1ccc2c(c1)CCC/C2=N\O)NO
[out] > 80%

[in] Return inhibition at 50 µM (reported value) for this compound: CCN(CC)c1ccc(C(=O)NC2CCc3cc(/C=C/C(=O)NCCCCCC(=O)Nc4ccc(F)cc4N)ccc32)cc1 (centres unmarked)
[out] < 50%

[in] Tell us which inhibition at 50 µM value is on record for Nc1cc(F)ccc1NC(=O)/C=C/c1ccc2c(c1)CCC2NCCc1c[nH]c2ccccc12 (centres unmarked)
[out] > 80%

[in] Identify measured inhibition at 50 µM associated with O=C(/C=C/c1ccc2c(c1)CCC2N1CC(=O)N(c2cc(Cl)cc(Cl)c2)C1=O)NO (centres unmarked)
[out] > 80%

[in] Tell me measured inhibition at 50 µM for COc1ccc2c(c1)CCCC2NC(=O)CCCCCCC(=O)NO (centres unmarked) please.
[out] > 80%

[in] Supply recorded inhibition at 50 µM for CN(C)c1ccc(CCNC2CCc3cc(/C=C/C(=O)NO)ccc32)cc1 (centres unmarked) here.
[out] > 80%

[in] Provide only the value of recorded inhibition at 50 µM for O=C(/C=C/c1ccc2c(c1)CCC2NS(=O)(=O)c1cc(C(F)(F)F)cc(C(F)(F)F)c1)NO (centres unmarked)
[out] > 80%

[in] Please supply the value of reported inhibition at 50 µM for the item O=C(/C=C/c1ccc(COc2ccc3c(c2)CCCC3=O)cc1)NO
[out] > 80%

[in] Identify measured inhibition at 50 µM associated with O=C(/C=C/c1ccc2c(c1)CCCC2OCc1cc(C(F)(F)F)cc(C(F)(F)F)c1)NO (centres unmarked)
[out] > 80%

[in] # return recorded inhibition at 50 µM for input Cc1[nH]c2ccccc2c1CCNC1CCc2cc(/C=C/C(=O)NO)ccc21 (centres unmarked)
[out] > 80%

[in] Please look at this compound and report its inhibition at 50 µM: Cc1ccc(S(=O)(=O)NC2CCc3cc(/C=C/C(=O)NO)ccc32)cc1 (centres unmarked)
[out] > 80%

[in] Let me know recorded inhibition at 50 µM for Nc1cc(F)ccc1NC(=O)/C=C/c1ccc2c(c1)CC/C(=C\c1cc(C(F)(F)F)cc(C(F)(F)F)c1)C2=O , thanks.
[out] < 50%
